- Experimental System: Ube1 (Homo sapiens)
- Construct: gene UBA1
- Sequence (P22314 2-1058): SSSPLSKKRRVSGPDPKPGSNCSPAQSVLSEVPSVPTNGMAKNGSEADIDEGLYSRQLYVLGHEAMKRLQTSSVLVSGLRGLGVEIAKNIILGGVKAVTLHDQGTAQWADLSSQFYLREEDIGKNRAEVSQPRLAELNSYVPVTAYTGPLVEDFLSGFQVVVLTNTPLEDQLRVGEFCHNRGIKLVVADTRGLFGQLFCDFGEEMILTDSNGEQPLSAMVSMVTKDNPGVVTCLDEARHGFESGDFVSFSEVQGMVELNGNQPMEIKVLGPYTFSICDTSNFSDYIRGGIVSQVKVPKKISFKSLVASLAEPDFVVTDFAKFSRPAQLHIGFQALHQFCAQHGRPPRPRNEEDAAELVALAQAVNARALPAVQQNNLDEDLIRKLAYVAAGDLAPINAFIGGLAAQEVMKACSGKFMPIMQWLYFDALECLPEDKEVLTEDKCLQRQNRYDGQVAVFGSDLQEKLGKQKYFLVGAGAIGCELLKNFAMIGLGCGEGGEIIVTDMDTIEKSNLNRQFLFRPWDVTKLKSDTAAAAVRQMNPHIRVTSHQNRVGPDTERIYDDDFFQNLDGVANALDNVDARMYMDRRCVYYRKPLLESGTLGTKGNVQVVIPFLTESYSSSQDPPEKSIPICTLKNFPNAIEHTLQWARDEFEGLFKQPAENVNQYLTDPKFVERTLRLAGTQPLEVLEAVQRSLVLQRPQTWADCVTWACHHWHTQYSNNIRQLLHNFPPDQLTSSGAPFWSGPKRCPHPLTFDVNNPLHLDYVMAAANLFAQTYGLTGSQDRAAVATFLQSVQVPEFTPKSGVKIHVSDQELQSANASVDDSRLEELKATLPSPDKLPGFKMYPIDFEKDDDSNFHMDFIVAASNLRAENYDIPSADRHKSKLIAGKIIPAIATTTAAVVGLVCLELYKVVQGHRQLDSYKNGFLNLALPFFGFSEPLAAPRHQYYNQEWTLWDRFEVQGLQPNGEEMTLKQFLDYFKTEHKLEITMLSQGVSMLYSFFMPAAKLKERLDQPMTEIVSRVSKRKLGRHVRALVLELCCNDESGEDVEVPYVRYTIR
- Experiment: Gel-based Ube1~Ub thioester assay with purified Ube1; also on-bead UPS-CONA with Ube1 alone (IC50 below […])
- Assay type: biochemical
Value Kind: IC50

Notebook: pull reported IC50 for Ube1 (Homo sapiens), entry Cc1ccc(S(=O)(=O)/C=C/C#N)cc1 [BAY 11-7082] ~4.6 µM

* * *

- Experimental System: Ube1 (Homo sapiens, UniProt P22314)
- Construct: gene UBA1
- Experiment: Gel-based Ube1~Ub thioester assay and on-bead UPS-CONA with Ube1 alone
- Type: biochemical
Value Kind: pIC50
Numbers only, as −log10 of the molar value.

Look up pIC50: CCc1ccc(/C=C/C(=O)Nc2ccc(C(C)=O)cc2)o1 4.80

These measurements were taken from paper PMC6086040.
